Target: mPGES-1 (Homo sapiens)
Sequence (O14684 1-152): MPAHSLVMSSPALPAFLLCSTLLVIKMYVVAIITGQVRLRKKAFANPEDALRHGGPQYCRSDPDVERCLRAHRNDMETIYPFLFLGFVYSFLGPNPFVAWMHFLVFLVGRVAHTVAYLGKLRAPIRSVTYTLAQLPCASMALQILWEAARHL
property_label: pIC50
Lab note: report pIC50 as minus log10 of the concentration in molar units, number only.

Request: Look at this compound and give its reported pIC50. `CC(C)Oc1ccc(-n2c(C(=O)O)cc3cc(Oc4cccc(C(F)(F)F)c4)ncc32)cc1`
Result: 5.64

Taken from patent US20090048285A1.
